Assay: in vivo
Details: mouse, 1 mg/kg, read-out: MRTinf
Measurement Name: MRT inf (h)
Please reply with the bare figure in h and do not write the unit itself.

Looking up CC(=O)NC1C(OC2C(C)OC(OC3C=CC=CC=CC=CCCC=CC=CC(C)C(O)C(C)C(C)OC(=O)CC(O)CC(O)CC(O)CCC(O)C(O)CC4(O)CC(O)C(C(=O)O)C(C3)O4)C(O)C2N)OC(CO)C(O)C1O (stereo not shown) , I see its MRT inf listed as 1.1

---

Test: in vivo
Conditions: mouse, 0.5 mg/kg, read-out: AUC0-t
Measurement Name: AUC(0-t) (ng·h/mL)
Please reply with the bare figure in ng·h/mL and do not write the unit itself.

Looking up CC(=O)NC1C(OC2C(C)OC(OC3C=CC=CC=CC=CC=CC=CC=CC(C)C(O)C(C)C(C)OC(=O)CC(O)CC(O)CC(O)CCC(O)C(O)CC4(O)CC(O)C(C(=O)O)C(C3)O4)C(O)C2N)OC(CO)C(O)C1O (stereo not shown) , I see its AUC(0-t) listed as 5890

---

Experiment: in vivo
Conditions: mouse, 0.5 mg/kg, read-out: CL (converted)
Measurement Name: clearance (mL/min/kg)
Please reply with the bare figure in mL/min/kg and do not write the unit itself.

Looking up CC(=O)NC1C(OC2C(C)OC(OC3C=CC=CC=CC=CC=CC=CC=CC(C)C(O)C(C)C(C)OC(=O)CC(O)CC(O)CC(O)CCC(O)C(O)CC4(O)CC(O)C(C(=O)O)C(C3)O4)C(O)C2N)OC(CO)C(O)C1O (stereo not shown) [NPP B1, Nystatin-like Pseudonocardia polyene B1] , I see its clearance listed as 0.5

---

Test: in vivo
Settings: mouse, 1 mg/kg
Measurement Name: AUC(0-t) (ng·h/mL)
Please reply with the bare figure in ng·h/mL and do not write the unit itself.

C[C@@H]1[C@H](O)[C@@H](C)/C=C/C=C/C=C/C=C/C=C/C=C/C=C/[C@H](O[C@@H]2O[C@H](C)[C@@H](O)[C@H](N)[C@@H]2O)C[C@@H]2O[C@](O)(C[C@@H](O)C[C@@H](O)[C@H](O)CC[C@@H](O)C[C@@H](O)CC(=O)O[C@H]1C)C[C@H](O)[C@H]2C(=O)O 22200

Now take the following molecule into account.
Looking up C[C@@H]1[C@H](O)[C@@H](C)/C=C/C=C/CC/C=C/C=C/C=C/C=C/[C@H](O[C@@H]2O[C@H](C)[C@@H](O)[C@H](N)[C@@H]2O)C[C@@H]2O[C@](O)(C[C@@H](O)[C@H](O)CC[C@@H](O)C[C@@H](O)C[C@@H](O)CC(=O)O[C@H]1C)C[C@H](O)[C@H]2C(=O)O , I see its AUC(0-t) listed as 7120

---

Test: Microsomal (metabolic) stability
Assay type: in vitro ADME
Conditions: human liver microsomes 1.0 mg/ml
Measurement Name: Clearance class

Compound	Recorded Result
C[C@@H]1[C@H](O)[C@@H](C)/C=C/C=C/C=C/C=C/C=C/C=C/C=C/[C@H](O[C@@H]2O[C@H](C)[C@@H](O)[C@H](N)[C@@H]2O)C[C@@H]2O[C@](O)(C[C@@H](O)C[C@@H](O)[C@H](O)CC[C@@H](O)C[C@@H](O)CC(=O)O[C@H]1C)C[C@H](O)[C@H]2C(=O)O [Amphotericin B, amphotericin B]	Low
CC(=O)NC1C(OC2C(C)OC(OC3C=CC=CC=CC=CCCC=CC=CC(C)C(O)C(C)C(C)OC(=O)CC(O)CC(O)CC(O)CCC(O)C(O)CC4(O)CC(O)C(C(=O)O)C(C3)O4)C(O)C2N)OC(CO)C(O)C1O (stereo not shown) [NPP A1]	Low
C[C@@H]1[C@H](O)[C@@H](C)/C=C/C=C/CC/C=C/C=C/C=C/C=C/[C@H](O[C@@H]2O[C@H](C)[C@@H](O)[C@H](N)[C@@H]2O)C[C@@H]2O[C@](O)(C[C@@H](O)[C@H](O)CC[C@@H](O)C[C@@H](O)C[C@@H](O)CC(=O)O[C@H]1C)C[C@H](O)[C@H]2C(=O)O [Nystatin A1, nystatin A1]	Low
